Consider the following binders and their measured Average Fold loss in potency relative to 292.12.3.1, BAF-3(hIL-31R) proliferation assay readings.
# System name: recombinant human IL-31 (C108S), produced in E. coli by ZymoGenetics, MW 18 kDa (human), Q6EBC2
# Procedure text: cell-based or functional assay
Give the value in fold but do not write fold after it.

{"columns": ["Binder", "Number"],
 "data": [
  ["humanized 292.12.3.1 construct clone 26 (12VH1-gly + HC(fback) + LC(F71Y)) (antibody, human IgG4, V domains shown) VH: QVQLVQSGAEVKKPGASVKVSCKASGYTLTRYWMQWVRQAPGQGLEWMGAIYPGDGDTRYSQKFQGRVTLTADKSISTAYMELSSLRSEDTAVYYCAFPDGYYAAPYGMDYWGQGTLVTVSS VL: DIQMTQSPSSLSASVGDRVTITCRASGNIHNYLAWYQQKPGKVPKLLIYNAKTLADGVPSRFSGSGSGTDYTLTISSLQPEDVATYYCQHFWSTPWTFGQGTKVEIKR", 5.8]
]}

Problem: Consider the binder shown here: humanized 292.12.3.1 construct clone 23 (12VH5-gly + HC(fback) + LC(D70Q, F71Y, T72S)) (antibody, human IgG4, V domains shown) VH: EVQLVQSGAEVKKPGESLKISCKASGYTLTRYWMQWVRQMPGKGLEWMGAIYPGDGDTRYSPSFQGQVTLTADKSISTAYLQWSSLKASDTAMYYCAFPDGYYAAPYGMDYWGQGTTVTVSS VL: DIQMTQSPSSLSASVGDRVTITCRASGNIHNYLAWYQQKPGKVPKLLIYNAKTLADGVPSRFSGSGSGTQYSLTISSLQPEDVATYYCQHFWSTPWTFGQGTKVEIKR What is its recorded Average Fold loss in potency relative to 292.12.3.1, BAF-3(hIL-31R) proliferation assay?
Result: 7.6

Problem: Consider the binder shown here: humanized 292.12.3.1 construct clone 25 (12VH1-gly + HC(F29L, R94F) + LC(F71Y)) (antibody, human IgG4, V domains shown) VH: QVQLVQSGAEVKKPGASVKVSCKASGYTLTRYWMQWVRQAPGQGLEWMGAIYPGDGDTRYSQKFQGRVTMTRDTSISTVYMELSSLRSEDTAVYYCAFPDGYYAAPYGMDYWGQGTLVTVSS VL: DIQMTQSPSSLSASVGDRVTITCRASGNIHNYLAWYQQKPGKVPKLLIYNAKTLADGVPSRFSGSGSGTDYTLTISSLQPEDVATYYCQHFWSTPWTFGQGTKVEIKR What is its recorded Average Fold loss in potency relative to 292.12.3.1, BAF-3(hIL-31R) proliferation assay?
Result: 16.5
